protocol: yeast display, Sf9 membrane polyspecificity reagent, FACS + sequencing; frameworks hold sequencing errors
parameter_measured: polyreactivity (PSR sort gate)

>>> result_value("QVQLVESGGGLDQPGGSLRLSCAASGRIFRTYAMGWYRQAPGKQRELVAAINSVHRTYYADSVKGRFTITRDNAKNTVNLQMYCQKPEDSAVYYCNARYVLKVSQYGYWGQGTQVTVSS")
"high polyreactivity"
>>> result_value("QVQLVESGGGLVQAGGSLRLSCAASGFTFSRNTMGWYRPAPGKERELVAAIDSTGGSTYYADSVKGRFTISRDNAKNTVYLQMNSLKPEDTAVYYCATVLPDGRVWYEGYYWGQGTQVTVSS")
"low polyreactivity"
>>> result_value("QVQLVESGGGLVQAGGSLRLSCAASARTFYYNGMGWYIQAPGKERELVAASSGGGSSTSYADSVKGRFTISRDNAKNTVYLQMNSLKPEDTAVYYCAAKYGALRYYKMYYWGQGTQVTVSS")
"low polyreactivity"
>>> result_value("QVQLVESGGGLVQAGGSLRLSCAASGFIFRPNAMGWYRQAPGKERELVAAITGRSGSTNYADSVKGRFTISRDNAKNTVYLQMNSLKPEDTAVYYCAARVWQGYYPGYYYWGQGTQVTVSS")
"high polyreactivity"
>>> result_value("QVQLVESGGGLVQAGGSLRLSCAASGIIFDEYAMGWYRQAPGKERELVAAITWSGGSTYYADSVKGRFTISRDNAKNTVYLQMNSLKPEDTAVYYCNAVQSDEIAYGDTRLDYWGQGTQVTVSS")
"low polyreactivity"
>>> result_value("QVQLVESGGGLVQAGGSLRLSCAASGRTIRRYAMGWYRQAPGKERELVAAITISGGSTYYADSVKGRFTISRDNAKNTVYLQMNSLKPEDTAVYYCAAQPWRALGYYYWGQGTQVTVSS")
"high polyreactivity"
>>> result_value("QVQLVESGGGLVQAGGSLRLSCAASGRTFGIYAMGWYRQAPGKERELVAAISCGGGSTYYADSVKGRFTISRDNAKNTVYLQMNSLKPEYTAVYYCAAQAQWDGQMDYWGQGTQVTVSS")
"low polyreactivity"
>>> result_value("QVQLVESGGGLVQAGGSLRLSCAASGSIFVYYSMGWYRQAPGKERELVATISSGASTYYADSVKGRFTISRDNAKNTVYLQMNSLKPEDTAVYYCNADNLAGSVEHDYWGQGTQVTVSS")
"low polyreactivity"
>>> result_value("QVQLVESGGGLVQAGGSLRLSCAASGITFLKNAMGWYRQAPGKERELVAAISSSGGSTYYADSVKGRFTISRDNAKNTVYLQMNSLKPEDTAVYYCAAYPTSTVVDDFDYWGQGTQVTVSS")
"high polyreactivity"
>>> result_value("QVQLVESGGGLVQAGGSLRLSCAASGRTLGTNAMGWYRQARGKERELVAAISRTGTSTYYADSVKGRFTISRDNAKNTVYLQMNSLKPEDTAVYYCAVRVPVSIPPGNYYYWGQGTQVTVSS")
"high polyreactivity"

Inquiry: Requested field: polyreactivity (PSR sort gate). Item: QVQLVESGGGLVQAGGSLRLSCAASGSTFSEYAMGWYRQAPGKERELVAAISETGGRTYYADSVKGRFTISRDNAKNTVYLQMNSLKPEDTAVYYCAVDHLTRSGDGEYWGQGTQVTVSS
Reply text: high polyreactivity

----------
protocol: yeast display, Sf9 membrane polyspecificity reagent, FACS + sequencing; frameworks hold sequencing errors
parameter_measured: polyreactivity (PSR sort gate)

Worked examples, 5 sequences total:
>>> result_value("QVQLVESGGGLVQAGGSLRLSCAASGSIYPNGLGWYRQAPGKERELVATITSGGSTYYADSVKGRFTISRDNAKNTVYLPMHSQKPEDTAVYYCAATVYGGYSGSGSNYWGQGTQVTVSS")
"low polyreactivity"
>>> result_value("QLQLVESVGGLVQAGGSLRLSCAPSGSTFYWNAMGWYRQAPGKERELVAVITSSGTRTYYADSVKGRFTISRDNAKNTVYLQMNSLKPEDTEVDYCAKRETYTGPNSRYGQWKKVYYWGQGTQVTVSS")
"low polyreactivity"
>>> result_value("QVQLVESGGGLDQAGGSLRLSCAASGRTYYLYAMGWYRQAPGKERELVAAITFNGGSTYYADSVKGRFTISRDNGKNTVYLQMNSLKPEDTAVDYCAGRLSKRSGYYYWGQGTQVTVSS")
"high polyreactivity"
>>> result_value("QVQLVESGGGLVQAGGSLRLSCAASGSIFSTNAMGWYRQAPGKERELVAAITYSGSLTYYADSVKGRFTISRDNAKNTVYLQMNSLKPEDTAVYYCAADTSWYSWWFDYWGQGTQVTVSS")
"low polyreactivity"
>>> result_value("QLQLVESGGGLVQAGGSLRLSCAASGSTFRWYAKGWYRQAPGKERELVAAISYSGGRTYYADSVKGRFTISRDTAKNTVYLQMNSLKPEDTAVYYCAADYVESKSLLEYWGQGTQVTVSS")
"low polyreactivity"

Inquiry: Requested field: polyreactivity (PSR sort gate). Item: QVQLVESGGGLVQAGGSLRLSCAASGSIFDPYAMGWYIQAPGKERELVAVINDGGRTTYADSVKGRFTISRDNAKNTVYLQMNSLKPEDTAVYYCAADVGYFKSDYWGQGTQVTVSS
Reply text: low polyreactivity

Inquiry: Requested field: polyreactivity (PSR sort gate). Item: QVQHVQSGGGLVQAGGSLRLSCAASGYIFWSYEIGGYRQAPGKERELDATITSGDSTYYADSVKGRFTISRDNAKNTVYLQMKSLKPEDTALDYCAACTYYRLTYWLREYDYSGQGTQVTVSS
Reply text: low polyreactivity

Inquiry: Requested field: polyreactivity (PSR sort gate). Item: QVQLVESGGGLVQAGGILRLSCAASGRIFFPNAMGWFRQAPGKERELVASISRGTSTNYADSVKGRVTISRDNAKNTVYLQMHSLKPEDTAVYYCAAKSAPYFGGRSRYAYWGQGTQVTVSS
Reply text: low polyreactivity

Inquiry: Requested field: polyreactivity (PSR sort gate). Item: QFQLVDSVGGLDQAGGSLRLSSDASGLTLIGNAMGWYRQAPVKERELVASITIGGTTYADSVKGRFTISRDNAKNTVYLQMNSLKPEDTEVYYCAADFSSFSIDTGYDYWGQGTQVTVSS
Reply text: low polyreactivity

Inquiry: Requested field: polyreactivity (PSR sort gate). Item: QVQLLESGGGLVQAGGTLRLSCAASGRTFYVNAMGWYRQAPGKERELVAAIRRGGSPNYADSVKGRFTISRDNEQNTVYLQMNSLKPEDTAVFYCNASPCGRKQYISPYDYRGQGTQVTVSS
Reply text: low polyreactivity

Inquiry: Requested field: polyreactivity (PSR sort gate). Item: QVQLVESGGGLVQAGGSLRLSCAASGSIFERNAMGWYRQAPGKERELVAVITGSGGSTYYADSVKGRFTISRDNAKNTVYLQMNSLKPEDTAVYYCAAPVHTASGRWVPGYYYWGQGTQVTVSS
Reply text: high polyreactivity

----------
protocol: yeast display, Sf9 membrane polyspecificity reagent, FACS + sequencing; frameworks hold sequencing errors
parameter_measured: polyreactivity (PSR sort gate)

Worked examples, 8 sequences total:
>>> result_value("QVQLVESGGGLVQAGGSLRLSCAASGFTFLSYAMGWYRQAPGKERELVAAISRSGGSTYYADSVKGRFTISRDNAKNTVYLQMNSLKPEDTAVYYCAARSAFRNQFSRNNYWGQGTQVTVSS")
"high polyreactivity"
>>> result_value("QVQLVESGGGLVQAGGSLRLSCAASGLTFRRYDMGWYSQAPGKERELVAAITGGGSTYYADSVKGRFTISRDNAKNTVYLQMNSLKPEDTAGYYCAAGTWYWSYAYDYWGQGTQVTVSS")
"high polyreactivity"
>>> result_value("PDQLVESGGGLVQAGGSLRLSCAASGFIFTYYAMGWYRQAPGKERELVAAITRRGGSTYYADSVKGRFTISRDNAKNTVYLQMNRLKPEDTAVYYCNKVDQGRYGYWGQGTQVTVSS")
"high polyreactivity"
>>> result_value("QVQLVESGGGLVQAGGSLRISCAASGRTFRYYGMGWYRQPPAKERVVAAITWSGDTTYYADSVKGRFTISRDNAKNTVYLQMNSLKPEDTAVYYFAAQSWHRYYYWGQGTQVTVSS")
"high polyreactivity"
>>> result_value("QVHLVESGGGLVQAGGSLRLSCAASGSIFWWYAMGWYRQAPGKERELVAAIRWSGTTAFYADSVKGRFTISRDYAKNTVYLQMNSLKPEDTAVYYCNAEGGIWGGTTGYDYWGQGTQVTVSS")
"low polyreactivity"
>>> result_value("QVQLVESGGGLVQAGGSLRLSCAASGSTFRVYAMGWYRQAPGKERELVAAISWSAGSTYYADSVKGRFTISRDNAKNTVYLQMNSLKPEDTAVYYCNADPDRYDWYTYLYLADYWGQGTQVTVSS")
"low polyreactivity"
>>> result_value("QVQLVESGGGLVQAGGSLRLSCAASGSTFVKYAMGWYRQAPGKERELVATITYSSGSTSYADSVKGRFTISRDNAKNTVYLQMNSLKPEDTAVYYCAKKDYTGYGYWGQGTQVTVSS")
"low polyreactivity"
>>> result_value("QVQLVESGGGLVQAGGSLRLSCAASGRIFQVNAMGWYRQAPGKERELVAAITYSGGTTYYADSVKGRFTISRDNAKNNVYLQMNRLKPEYTAVYYCAAEGYGAQGDPWQYGYEYWGQGTKVTVSS")
"low polyreactivity"

Inquiry: Requested field: polyreactivity (PSR sort gate). Item: QEQLQESGGCLVQAGCSLRLSCAPSGTISDSGLMGWYRQPQGKERELVAGISSGGITNYADSVKGRLTISRDNAKNTVYLQMNSLKPEDTAVYYCAADSPVSVTADDGYWGQGTQVTVSS
Reply text: low polyreactivity

Inquiry: Requested field: polyreactivity (PSR sort gate). Item: QVQLVESGGGLVQAGGSHRLSCAASGGILETNAMGWYRQAPGKERELVAAIDFSAGSTYYADSVKGRFTISRDNAKNTVYLQMNSLKPEDTAVYYCAAESQGPKDDYLWGWHIYYYWGQGSQVTVSS
Reply text: low polyreactivity

Inquiry: Requested field: polyreactivity (PSR sort gate). Item: QVQLVESVGGLVQAGGSLRLSCAASGRTFAGNAMGWYRQAPGKEREFVASITASGVNTYYADSVKGRFTISRDNAKNTVYLQMNSLKPEDTAVYYCNKRNRWTPFYTYDYWGQGTQVTVSS
Reply text: low polyreactivity

Inquiry: Requested field: polyreactivity (PSR sort gate). Item: QVQLVESGGGLVQAGGSLSLSCAAYGFTFERNGMGWYRQAPGKERELVAAISIRGGSTYYADSVKGRFTMSRDNAKNTVSLQMNSLKPEDTAVYYCAVVARRAFDYWGQGTQVTVSS
Reply text: high polyreactivity

Inquiry: Requested field: polyreactivity (PSR sort gate). Item: QVQLVESGGGLVQAGGSLRLSCAASGYTFYAYAMGWYRQAPGKERELVAAISGSGGNTRYADSVKGRFTISRDNAKNTVYLQMNSLKPEDTAVYYCAAVGWAYNSRYDYWGQGTQVTVSS
Reply text: high polyreactivity

Inquiry: Requested field: polyreactivity (PSR sort gate). Item: QVQLVESGGGLVQAGGSLRISCAASGRTFKRYAMGWYRQAPGKERELVAAITGTGAITYYADSVKGRFTISRDNAKNTVYLQMNSLKPEDTAVYYCNARYWYRYGGYKPVGGYYWGQGTQVTVSS
Reply text: high polyreactivity

Inquiry: Requested field: polyreactivity (PSR sort gate). Item: QVQLVESGGGLVQAGGSLRLSCAASGSTFNRYAMGWYRQAPGKERELVADINSGGRTNYADSVKGRFTISRDNAKNTVYLQMNSLKPEDTAVYFCARRFQYWLSGGQYDYWGQGTQVTVSS
Reply text: high polyreactivity

Inquiry: Requested field: polyreactivity (PSR sort gate). Item: QVQLVESGGGLVQAGGSLRLSCAASGIIFYKNAMGWYRQAPGKDRELVAAISGSGGRTYYADSVTGRFTISRDNGKNTVYFQMNSLKPEDTAVYYCAARQPYRHGYESWGQGSQVTVSS
Reply text: high polyreactivity

Inquiry: Requested field: polyreactivity (PSR sort gate). Item: QVQLVESGGGLVQAGGSLRLSCAASGSIFVTNAMGWYRQAPGKERELVAAISVSGGSTYYADSVKGRFTISRDNAKNTVYLQMNSLKPEDTGVYYCAADGYIGWRHIYEYWGQGTQVTVSS
Reply text: low polyreactivity

Inquiry: Requested field: polyreactivity (PSR sort gate). Item: QVQLVESGGGLVQAGGSLRLSCAASGRIFQSNAMGWYRQAPGKEREFVARISKRGGSTYYADSVKGRFTISRDNAKNTVYLQMNSLKPEDTAVYYCAVRRHDRGTMGYWGQGTQVTVSS
Reply text: low polyreactivity

Inquiry: Requested field: polyreactivity (PSR sort gate). Item: QVQLVESGGGLVQAGGSLRLSCAASGRNFPLNAMGWYRQAPWKERELVAAISIGGSTYYADSVKGRFTISRDNPKNTVYLQMNSLKPDETAVYYCAAVWYTSRQKYDYWGQGTQVTVSS
Reply text: low polyreactivity

Inquiry: Requested field: polyreactivity (PSR sort gate). Item: QVQHVESGGGLVQAGGSLRLSCAASGFTFYTYAMGWYRPAPGKERELVAAITSSGGSTYYADSVKGRFTISRDNAKNTVYLQMNSLKPEDTAVYYCNDRVRTQQRWVDYWGQGTQVTVSS
Reply text: high polyreactivity

Inquiry: Requested field: polyreactivity (PSR sort gate). Item: QVQLVESGGGLVQAGGSLRLICAASGSILYKYAMGWYRQAPGKERELVAAISSRGGNTYYADSVKGRFTISRDNSKNTVYLQMNSLKPEDTAVYYCAADLWAGKYGEYDYWGQGTQVTVSS
Reply text: high polyreactivity
